Data provenance is PubChem BioAssay (NCATS).

assay target: Mitogen-activated protein kinase 10 (Mus musculus)
test method notes: JNK3 AlphaScreen Assay (AID 530);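 note: kinase came from lysate of stimulated human HepG2 cells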
condition summary: JNK3 lysate, c-Jun phosphorylation; series mostly up to 57.1 µM
Records with an inconclusive call do not appear. Activity calls are given as the source filed them. Calls come from the whole dose curve; as a rule, active = well fitted curve in either direction with a large enough effect (not every such curve was filed as active); inconclusive = small, poorly fitted or top-dose-only effect, or another doubt; inactive = flat fitted curve, though single readings scatter. Residues, ends and D or L forms follow the SMILES beside them.
Labels: True (active), False (inactive)

- compound: "N[C@H](C(=O)O)c1ccc(C(=O)O)cc1"
  assay target: "Mitogen-activated protein kinase 10 (Mus musculus)"
  class: "False"
- compound: "CC(C)Oc1ccc2c(=O)c3cc(C(=O)O)ccc3oc2c1"
  assay target: "Mitogen-activated protein kinase 10 (Mus musculus)"
  class: "False"
- compound: "C[C@H](C[C@H](N)C(=O)O)C(=O)O"
  assay target: "Mitogen-activated protein kinase 10 (Mus musculus)"
  class: "False"
- compound: "COCCNC(=O)COc1ccc(OCCNC[C@@H](O)COc2ccccc2)cc1"
  assay target: "Mitogen-activated protein kinase 10 (Mus musculus)"
  class: "False"
- compound: "CCCCN1CCC(CCC(=O)c2cc(Cl)c(N)cc2OC)CC1"
  assay target: "Mitogen-activated protein kinase 10 (Mus musculus)"
  class: "False"
- compound: "Fc1ccc([C@H]2CCNC[C@H]2COc2ccc3c(c2)OCO3)cc1"
  assay target: "Mitogen-activated protein kinase 10 (Mus musculus)"
  class: "False"
- compound: "CCCCCCCCCCCCCCCC(=O)C(F)(F)F"
  assay target: "Mitogen-activated protein kinase 10 (Mus musculus)"
  class: "False"
- compound: "OC[C@H]1NC[C@H](O)[C@@H](O)[C@H]1O"
  assay target: "Mitogen-activated protein kinase 10 (Mus musculus)"
  class: "False"
- compound: "CN1CCc2cc3c(cc2[C@@H]1[C@@H]1C(=O)Oc2c1ccc1c2OCO1)OCO3"
  assay target: "Mitogen-activated protein kinase 10 (Mus musculus)"
  class: "False"
- compound: "C[C@@H](/C=C\\c1cccc(Oc2ccc(F)cc2)c1)N(O)C(N)=O"
  assay target: "Mitogen-activated protein kinase 10 (Mus musculus)"
  class: "False"
- compound: "N#Cc1cc2[nH]c(=O)c(=O)[nH]c2cc1[N+](=O)[O-]"
  assay target: "Mitogen-activated protein kinase 10 (Mus musculus)"
  class: "False"
- compound: "CC[C@]1(c2ncc[nH]2)Cc2ccccc2O1"
  assay target: "Mitogen-activated protein kinase 10 (Mus musculus)"
  class: "False"
- compound: "C[C@H]1C=C2C=C[C@H](C)[C@H](CC[C@@H]3C[C@@H](O)CC(=O)O3)[C@H]2[C@@H](OC(=O)[C@@H](C)CCO)C1"
  assay target: "Mitogen-activated protein kinase 10 (Mus musculus)"
  class: "False"
- compound: "NC[C@](O)(CS(=O)(=O)O)c1ccc(Cl)cc1"
  assay target: "Mitogen-activated protein kinase 10 (Mus musculus)"
  class: "False"
- compound: "CCCCCCCC(=O)O[C@H](CC(=O)O)C[N+](C)(C)C"
  assay target: "Mitogen-activated protein kinase 10 (Mus musculus)"
  class: "False"
- compound: "CCOC(=O)[C@H](N)/C=C(\\C)CP(=O)(O)O"
  assay target: "Mitogen-activated protein kinase 10 (Mus musculus)"
  class: "False"
- compound: "CC(N)=NCc1cccc(CN)c1"
  assay target: "Mitogen-activated protein kinase 10 (Mus musculus)"
  class: "False"
- compound: "CN(C)c1ccc(/C=C2/C(=O)Nc3ccccc32)cc1"
  assay target: "Mitogen-activated protein kinase 10 (Mus musculus)"
  class: "True"
- compound: "CC(=O)NCC(=O)N[C@H](CCC(=O)O)C(=O)O (HELM PEPTIDE1{[ac].G.[dE]}$$$$V2.0)"
  assay target: "Mitogen-activated protein kinase 10 (Mus musculus)"
  class: "False"
- compound: "C[C@@H]1CNCCN1S(=O)(=O)c1cccc2cnccc12"
  assay target: "Mitogen-activated protein kinase 10 (Mus musculus)"
  class: "False"
- compound: "CCC(C)(C)C(=O)O[C@@H]1C[C@@H](C)C=C2C=C[C@H](C)[C@H](CC[C@@H]3C[C@@H](O)CC(=O)O3)[C@H]21"
  assay target: "Mitogen-activated protein kinase 10 (Mus musculus)"
  class: "False"
- compound: "Cc1ncc2c(c1O)COP(=O)(O)OC2"
  assay target: "Mitogen-activated protein kinase 10 (Mus musculus)"
  class: "False"
- compound: "N#C/C(=C\\c1ccc(O)c(O)c1)C(=O)Nc1ccccc1"
  assay target: "Mitogen-activated protein kinase 10 (Mus musculus)"
  class: "True"
